Just for reference, the supplement of paper PMC9112550 is where these values come from.

# Tested on: Escherichia coli TOP10;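 also: peptides expressed intracellularly from a pBAD plasmid library in pooled LB shake-flask culture, induced with 0.3% L-arabinose, DNA abundance read by NGS, three biological replicates, DESeq2 with apeglm shrinkage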
# protocol: shrunken log2 fold change of peptide-encoding DNA abundance (4.5 h post-induction vs induction); higher = less antimicrobial activity (less host growth inhibition)
# assay conditions: time post-induction: 4.5 h; library: site-saturation at positions 5, 18, 19, 20
property label: shrunken log2 fold change
Output: the number by itself.

RRIRGRPPRLPRPRPRPRPKPRP	1.41
RRIRVRPPRLPRPRPRPAHQPRP	0.317
RRIRHRPPRLPRPRPRPAVAPRP	0.117
RRIRQRPPRLPRPRPRPKELPRP	-0.534
RRIRVRPPRLPRPRPRPCHDPRP	-0.122
RRIRMRPPRLPRPRPRPCQQPRP	0.0325

Shift focus to the following entry.
Data request: Need shrunken log2 fold change, item RRIRGRPPRLPRPRPRPKCTPRP
Data returned: 0.978
